Reference for the values: patent US10000452B1

assay: aqueous solubility (LC/MS- or HPLC-based assay); format: physicochemical; conditions: aqueous medium, pH 6.5, aqueous buffer, pH 6.5; read-out: Solubility pH 6.5
readout kind: solubility

Here are 6 molecules together with their reported answers.
1. COC(=O)c1c[nH]c2cc(CN3CCN(c4ccccc4)CC3)ccc2c1=O : ≥ 80 µM
2. COC(=O)c1c[nH]c2cc(N3CCN(Cc4ccc(OC)cc4)CC3)ccc2c1=O : 40 to 59.9 µM
3. COC(=O)c1c[nH]c2cc(CCN3CCN(c4ccccc4)CC3)ccc2c1=O : ≥ 80 µM
4. COC(=O)c1c[nH]c2cc(CN3CCN(c4ccccc4)CC3)c(C)cc2c1=O : 60 to 79.9 µM
5. COC(=O)c1c[nH]c2cc(N3CCN(Cc4ccccc4)CC3)c(OC)cc2c1=O : 40 to 59.9 µM
6. COC(=O)c1c[nH]c2cc(N3CCN(Cc4ccccc4)CC3)c(C)cc2c1=O : ≥ 80 µM

What value of measured solubility is listed for COC(=O)c1c[nH]c2cc(CN3CCN(Cc4ccc(OC)cc4)CC3)ccc2c1=O ?
≥ 80 µM
